Collected TGI values appear next to each entry.
system: DU-145 prostate; test: NCI tumour cell line growth inhibition, 48 h

Query: Entry under review: O=S1(=O)OCCCOS(=O)(=O)C1Br . Reported TGI?
Result: > 100 µM

Query: Quick check: TGI of COc1ccc(C(CC(=O)c2ccccc2)C(=O)c2ccc3c(c2)OCO3)cc1 (stereo not drawn) ?
Result: > 100 µM

Query: # lookup: TGI of CO[C@H](C(=O)N[C@@H](CCCCNC(=O)OCc1ccccc1)C(=O)OC(C)(C)C)[C@@H]1Cc2cc3cc(OC4CC(OC5CC(O)C(O)C(C)O5)C(O)C(C)O4)c(C)c(O)c3c(O)c2C(=O)[C@H]1OC1CC(OC2CC(OC3CC(C)(O)C(O)C(C)O3)C(O)C(C)O2)C(O)C(C)O1 (stereo partly drawn)
Result: > 10 µM

Query: Consider the molecule CCn1c(=O)c2c3ccc(O)cc3oc2c2ccc(O)cc21 and give its measured TGI.
Result: > 100 µM

Query: What TGI value was documented for this molecule, Nc1nncs1 ?
Result: > 5000 µM

Query: Suppose we examine the molecule C=CC(c1ccccc1)C1(O)c2cccc(O)c2C(=O)c2c(O)cccc21 (stereo not drawn) ; what TGI value has been reported?
Result: 28.8 µM

Query: I have this molecule here, O=C(NN1C(=O)c2ccccc2C1=O)c1ccccc1Nc1ccccc1C(=O)NN1C(=O)c2ccccc2C1=O , and I need its recorded TGI.
Result: > 100 µM

Query: Consider the molecule Cc1ccc2sc3c(NCCCNCCO)nc4ccccc4c3c(=O)c2c1 and give its measured TGI.
Result: 3.15 µM

Query: Tell me the measured TGI of Cn1cnc2c(NCc3ccccc3)nc(NCCO)nc21 , please.
Result: > 500 µM

====

# maps each entry to its TGI
system: MDA-MB-435; assay: NCI tumour cell line growth inhibition, 48 h

Cc1ccc(NC(=O)c2ccnc(N3CCCC3)c2)cc1-c1ccc(C(=O)NCC2CC2)cc1 ... > 25 µM
[N-]=[N+]=CC(=O)OCC(N)C(=O)O (stereo unspecified) ... > 100 µM
COc1ccc(Nc2ccnc(NCCCNc3ccnc4cc(Cl)ccc34)n2)cc1 ... 0.705 µM

Query: Suppose we examine the molecule COc1ccc2c(c1)Cc1c-2c(NN)nc2ccccc12 ; what TGI value has been reported?
Result: > 100 µM

Query: Look at this molecule and give its reported TGI. COC(=O)C(Cc1c[nH]c2ccccc12)NP(=O)(O)OCC1OC(n2cc(F)c(=O)[nH]c2=O)CC1O (stereo unspecified)
Result: > 100 µM

Query: Requested field: TGI. Item: COC(=O)Nc1nc2ccc(Oc3ccc(NC(=O)Nc4cccc(Cl)c4)cc3)cc2[nH]1
Result: 0.315 µM

Query: Find the recorded TGI belonging to Nc1c(Cl)c([N+](=O)[O-])cc2c1OCCCCO2 and report it.
Result: > 100 µM

Query: Quick one: TGI for CO[C@H](C(=O)N[C@@H](CCCCNC(=O)OCc1ccccc1)C(=O)OC(C)(C)C)[C@@H]1Cc2cc3cc(OC4CC(OC5CC(O)C(O)C(C)O5)C(O)C(C)O4)c(C)c(O)c3c(O)c2C(=O)[C@H]1OC1CC(OC2CC(OC3CC(C)(O)C(O)C(C)O3)C(O)C(C)O2)C(O)C(C)O1 (stereo partly specified) ?
Result: 2.28 µM

Query: # get_value(readout='TGI', item= CC(C)N(c1cc2c(cc1F)c(=O)c(C(=O)O)cn2-c1ccc(N2CCN(C)CC2)cn1)C(C)C )
Result: > 100 µM

Query: Any idea what TGI was measured for CC(C)N1CCCOC(c2ccc([N+](=O)[O-])cc2)O1 (stereo unspecified) ?
Result: > 100 µM

Query: Recorded TGI for COc1ccc(C(CC(=O)c2ccccc2)C(=O)c2ccc3c(c2)OCO3)cc1 (stereo unspecified) , please?
Result: > 100 µM

Query: Param item = COc1cc(/C=N/NC2=NCCCN2)ccc1O ; retrieve measured TGI.
Result: > 100 µM

Query: Quick one: TGI of COC1/C=C\OC2(C)Oc3c(C)c(O)c4c(O)c(c(CN(C)C)c(O)c4c3C2=O)NC(=O)/C(C)=C\C=C/C(C)C(O)C(C)C(O)C(C)C(OC(C)=O)C1C (stereo unspecified) ?
Result: 78.6 µM

Query: For O=c1[nH]c2ccsc2c(=O)n1COCc1ccccc1 , what is its reported TGI?
Result: > 100 µM

Query: State the recorded TGI for this entry: O=C(Nc1ccc(Br)c(Cl)c1)c1cc(F)ccc1O
Result: > 15.8 µM

Query: Consider the molecule COc1cc(C2S/C(=C/c3ccccc3)C(=O)N2c2ccc([N+](=O)[O-])cc2)cc(OC)c1OC (stereo unspecified) and give its measured TGI.
Result: > 100 µM

Query: Requested field: TGI. Item: O=C(O)Cc1[nH]cnc1C(=O)O
Result: > 100 µM

Query: Item CCCCc1ccc(N2C(=O)c3cccnc3S2(=O)=O)cc1 has what recorded TGI?
Result: > 100 µM

Query: Tell me the measured TGI of O=Cc1ccc2c(c1)CC1(C2)Cc2ccc(C=O)cc2C1 , please.
Result: 6.15 µM

Query: Report TGI for COc1c(O)cc2c(c1O)C1O[C@H](CO)C(O)[C@H](O)[C@H]1OC2=O (stereo partly specified) please.
Result: > 100 µM

Query: For the molecule COC(=O)c1c(C(=O)OC)c(C(c2ccccc2)c2ccccc2)n(-c2ccccc2)c1Cl , what TGI is on record?
Result: > 10 µM
